# tgt: hu.20A12.IA.GNT.H12(V3-23).L2(K1-5)
# assayDetails: BIAcore; 37 C
metricName: pKd
Answer as the number alone; pKd is minus log10 of concentration in mol/L.

Please look up its pKd: Ly6G6D (Fc fusion) NRMRCYNCGGSPSSSCKEAVTTCGEGRPQPGLEQIKLPGNPPVTLIHQHPACVAAHHCNQVETESVGDVTYPAHRDCYLGDLCNS
9.91
